Entry source: PubChem BioAssay AID1445

# target.under.test: Aminopeptidase N (Plasmodium falciparum (isolate 3D7)) (UniProt O96935)
# Sequence (O96935 whole entry, looked up): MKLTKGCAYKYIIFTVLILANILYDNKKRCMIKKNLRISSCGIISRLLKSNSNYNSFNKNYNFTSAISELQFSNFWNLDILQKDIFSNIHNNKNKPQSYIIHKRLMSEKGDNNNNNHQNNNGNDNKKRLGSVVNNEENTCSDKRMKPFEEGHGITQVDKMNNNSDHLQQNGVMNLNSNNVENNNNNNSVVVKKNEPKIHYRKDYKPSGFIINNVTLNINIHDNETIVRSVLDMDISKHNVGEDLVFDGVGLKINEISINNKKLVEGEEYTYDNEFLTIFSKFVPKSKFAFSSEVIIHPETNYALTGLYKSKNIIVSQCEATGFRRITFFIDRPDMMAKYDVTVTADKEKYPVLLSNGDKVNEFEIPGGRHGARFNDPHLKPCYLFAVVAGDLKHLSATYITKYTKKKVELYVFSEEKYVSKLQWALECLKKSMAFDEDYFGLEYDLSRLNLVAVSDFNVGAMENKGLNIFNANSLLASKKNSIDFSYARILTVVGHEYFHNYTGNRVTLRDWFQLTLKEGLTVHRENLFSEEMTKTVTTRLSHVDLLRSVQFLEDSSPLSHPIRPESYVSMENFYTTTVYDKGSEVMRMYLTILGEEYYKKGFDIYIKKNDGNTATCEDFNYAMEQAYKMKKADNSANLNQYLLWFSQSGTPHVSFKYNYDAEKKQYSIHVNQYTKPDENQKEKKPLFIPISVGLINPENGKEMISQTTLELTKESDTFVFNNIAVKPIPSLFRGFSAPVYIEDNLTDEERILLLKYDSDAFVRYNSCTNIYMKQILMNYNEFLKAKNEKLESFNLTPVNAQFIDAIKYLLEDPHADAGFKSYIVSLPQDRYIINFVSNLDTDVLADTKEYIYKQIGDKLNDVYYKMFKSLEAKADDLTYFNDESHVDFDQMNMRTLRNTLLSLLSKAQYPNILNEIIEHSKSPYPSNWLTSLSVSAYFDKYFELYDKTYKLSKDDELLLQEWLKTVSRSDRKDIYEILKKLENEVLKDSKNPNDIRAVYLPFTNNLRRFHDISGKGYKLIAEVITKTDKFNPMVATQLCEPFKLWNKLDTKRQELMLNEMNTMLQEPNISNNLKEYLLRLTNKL
# assay.comment: malaria alanyl aminopeptidase activity blockers – biochemical, fluorogenic H-Leu-NHMec substrate, 1536-well (AID 1445);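 also: plate controls were DMSO full reaction for no effect and no enzyme background for full effect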
# condition.context: recombinant M1AAP, H-Leu-NHMec fluorogenic kinetic assay; at 30 µM, active compounds read high unless noted
The whole screen tested about 220,000 compounds, of which about 910 (0.41%) were called active. Only a selection was taken, and actives are over-represented in it overall. Entries with a potency or affinity are not part of this list.
Exercise: state measured inhibition for each of the molecules provided.

Ask | Reported inhibition, molecule CC1(C)Oc2ccc3ccc(=O)oc3c2-c2cnoc21 : ____
Reply | 50.2% (inactive)

Ask | Dear colleague, I am looking for the recorded inhibition of the following molecule: Cc1csc(Nc2ccccc2)[n+]1C
Reply | -12.3% (inactive)

Ask | Bench note: what inhibition did O=C(CSc1nc2ccccc2n1CC(=O)N1CCOCC1)N1CCCC1 show?
Reply | 1.43% (inactive)

Ask | State the recorded inhibition for this entry: O=C(Nn1c(Cc2ccccc2)nc2ccccc2c1=O)c1c(O)c2cccc3c2n(c1=O)CCC3
Reply | -0.5% (inactive)

Ask | Entry Cc1cc(N2CCCC2)c(C)cc1C=O : reported inhibition = ?
Reply | 17.1% (inactive)

Ask | What measured inhibition goes with O=C(c1ccco1)N1CCN(Cc2cccnc2)CC1 ?
Reply | 3.43% (inactive)

Ask | Name the recorded inhibition for Cc1ccc(S(=O)(=O)Nc2ccccc2C(=O)OC(C)C(=O)Nc2ccc3ccccc3c2)cc1[N+](=O)[O-] (stereo not given) .
Reply | -0.95% (inactive)

Ask | Look at this molecule and give its reported inhibition. Cc1ccc(C)c(CS(=O)(=O)c2cn(CC(=O)N3CCC(C)CC3)c3ccccc23)c1
Reply | 9.18% (inactive)

Ask | Return reported inhibition; argument: CC(C)n1cc(/C=C2/SC(=O)N(CC(=O)N3CCCC3)C2=O)c2ccccc21
Reply | 7.08% (inactive)

Ask | Sample COc1ccc(NC(=O)CSc2ccc(-c3cccs3)nn2)c(OC)c1 — what was its inhibition?
Reply | 4.92% (inactive)

Ask | # query: inhibition of entry Cc1nnc(SCC(=O)Nc2sc3c(c2C(N)=O)CCCC3)[nH]c1=O
Reply | 11.5% (inactive)

Ask | Look at this molecule and give its reported inhibition. CS(=O)(=O)N1CCC(C(=O)Nc2ccc(F)cc2F)CC1
Reply | -3.46% (inactive)

Ask | For the molecule shown here, c1ccc(CCCCNCC2COc3ccccc3O2)cc1 (stereo not given) , give the reported inhibition.
Reply | 0.11% (inactive)

Ask | Need inhibition, item Cc1ccc(S(=O)(=O)NC2=NCCC2)cc1
Reply | -0.29% (inactive)

Ask | Name the recorded inhibition for Cc1cc(C)c2[nH]c(=O)c(=O)[nH]c2c1 .
Reply | 4.16% (inactive)

Ask | Which value of inhibition has been reported for CC1(C)Oc2ccc3ccc(=O)oc3c2-c2cn[nH]c21 in the records?
Reply | 26.5% (active)

Ask | What value of measured inhibition is listed for CCCCCOc1ccccc1C(=O)NCCC(=O)O ?
Reply | 0.09% (inactive)

Ask | Dear colleague, I am looking for the recorded inhibition of the following molecule: O=C(O)c1cccc(S(=O)(=O)Nc2ccc(O)c(Sc3nc4ccccc4s3)c2)c1
Reply | 22.2% (inactive)

Ask | Using the record for O=C(NCc1ccco1)c1nn2c(C(F)(F)F)cc(-c3cccs3)nc2c1Br , report its inhibition.
Reply | 15.8% (inactive)

Ask | Quick one: inhibition for Cc1ccnc(NS(=O)(=O)c2ccc(NC(=O)c3cncc(Br)c3)cc2)n1 ?
Reply | -0.33% (inactive)

Ask | Return reported inhibition; argument: COC(=O)CCP(=O)(O)Cc1ccccc1CP(=O)(O)CCC(=O)OC
Reply | 25.9% (active)

Ask | Endpoint output: inhibition of O=C(c1cccnc1)N1CCN(c2ccc([N+](=O)[O-])cc2Cl)CC1 . Value?
Reply | 7.28% (inactive)

Ask | Look up inhibition for this molecule: O=C(COC(=O)c1cccc2ccccc12)Nc1ncc(C(F)(F)F)cc1Cl
Reply | 1.24% (inactive)

Ask | Quick one: inhibition for COc1cc(NC(=S)N2CCCC(CO)C2)cc(OC)c1 (stereo not given) ?
Reply | -7.92% (inactive)

Ask | inhibition for CC(=O)Nc1ccc(NC(=O)CSc2nc3nc(-c4cccs4)cc(C(F)(F)F)c3c(=O)[nH]2)cc1 ?
Reply | 13.8% (inactive)

Ask | Which inhibition reading was recorded for the molecule NNC(=O)c1cc2c(s1)-c1cc(Cl)ccc1SC2 ?
Reply | 3.34% (inactive)

Ask | Form field: reported inhibition of O=C(CCCCn1c(=O)[nH]c2ccsc2c1=O)NCC1CCCO1 (stereo not given)
Reply | -2.47% (inactive)

Ask | I would be grateful if you could share the reported inhibition for COc1ccc(NC(=O)c2ccccc2NS(=O)(=O)c2ccc(C)cc2)c([N+](=O)[O-])c1 .
Reply | 11.4% (inactive)

Ask | May I ask what inhibition has been recorded for O=S(=O)(Nc1ccc(O)c(Sc2nc3ccccc3s2)c1)c1ccc(Cl)cc1 ?
Reply | 0.11% (inactive)

Ask | // lookup inhibition for CCn1c(=O)c(C(=O)NNS(=O)(=O)c2ccc(C)cc2)c(O)c2ccccc21
Reply | 5.97% (inactive)

Ask | Which inhibition value belongs to CSc1cc(-c2ccccc2)n(C)c(=O)c1C#N ?
Reply | 3.47% (inactive)

Ask | Please give the measured inhibition for this molecule: Cc1cccc(NC(=O)CN2C(=O)S/C(=C\c3ccc(-c4cccc(C(=O)O)c4C)o3)C2=O)c1
Reply | 2.36% (inactive)

Ask | // inhibition lookup, key: COC(=O)c1cc(C(=O)NCCN2C(=O)S/C(=C\c3cccs3)C2=O)cc([N+](=O)[O-])c1
Reply | 9.47% (inactive)

Ask | Look at this molecule and give its reported inhibition. CC1(C)Oc2ccc3ccc(=O)oc3c2/C(=C/N)C1=O
Reply | 8.41% (inactive)

Ask | Which inhibition value belongs to CN(C)C1=NC(=O)/C(=C\c2ccccc2)S1 ?
Reply | 3.5% (inactive)

Ask | // returns reported inhibition for input COc1cc(/C=C2\SC(=N)N(c3ccc4c(c3)OCO4)C2=O)cc(OC)c1O
Reply | 5.15% (inactive)

Ask | Request the reported inhibition associated with CCCOC(=O)Nc1nc2ccccc2o1
Reply | -8.89% (inactive)

Ask | For CC1CCN(C(=O)C2CCN(S(=O)(=O)c3cc(Cl)ccc3Cl)CC2)CC1 , what is its reported inhibition?
Reply | 0.81% (inactive)

Ask | I have this molecule here, CCOc1ccccc1OCC(=O)Nc1nnc(C)s1 , and I need its recorded inhibition.
Reply | 0.54% (inactive)

Ask | Field request: inhibition | item: CCOc1ccc(N(C(=O)c2ccccc2Cl)C2=NC(C)(C)CS2)cc1
Reply | 5.11% (inactive)

Ask | // query inhibition value for entry COC(=O)c1cccc(NC(=O)C2COc3ccccc3O2)c1C (stereo not given)
Reply | 3.13% (inactive)

Ask | Field request: inhibition | item: C/C(=N/NS(=O)(=O)c1ccc(C)cc1)c1ccc(NC(=O)C(F)(F)F)cc1
Reply | 2.89% (inactive)

Ask | Name the reported inhibition value associated with the molecule Cc1ccc(-c2cc(C(=O)O)c3ccccc3n2)c(C)c1
Reply | 3.63% (inactive)

Ask | inhibition for Cc1ccccc1Cn1nnc2c1C(=O)c1ccccc1C2=O ?
Reply | -4.07% (inactive)

Ask | So what's the measured inhibition for this one? Oc1c(Cl)cc(Cl)cc1C=Nc1ccc(Br)cc1
Reply | 12.1% (inactive)
